Catalogue of MIC values
test system: Staphylococcus aureus; assay: Growth inhibition of Staphylococcus aureus SA-1199 expressing wild type norA by microdilution method; type: organism-based; conditions: in vivo
recorded-metric: MIC (µg/mL)

[
  {
    "item-smiles": "CCCOc1ccc(-c2cc(OCCN3CCCCC3)c3cc(OCCCN(C)C)ccc3n2)cc1",
    "recorded-metric": "MIC",
    "censoring-operator": "=",
    "reading": 100
  },
  {
    "item-smiles": "CCCOc1ccc(-c2cc(OCCN3CCCCC3)c3cc(OCc4ccccc4)ccc3n2)cc1",
    "recorded-metric": "MIC",
    "censoring-operator": "=",
    "reading": 100
  },
  {
    "item-smiles": "CCCOc1ccc(-c2cc(OCCN3CCCCC3)c3cc(OCCN(CC)CC)ccc3n2)cc1",
    "recorded-metric": "MIC",
    "censoring-operator": "=",
    "reading": 100
  },
  {
    "item-smiles": "CCCOc1ccc(-c2cc(OCCN3CCCCC3)c3cc(O)ccc3n2)cc1",
    "recorded-metric": "MIC",
    "censoring-operator": "=",
    "reading": 25
  },
  {
    "item-smiles": "CCCOc1ccc(-c2cc(OCCN(CC)CC)c3cc(O)ccc3n2)cc1",
    "recorded-metric": "MIC",
    "censoring-operator": "=",
    "reading": 50
  },
  {
    "item-smiles": "CCCOc1ccc(-c2cc(OCCN(CC)CC)c3cc(OCCN(CC)CC)ccc3n2)cc1",
    "recorded-metric": "MIC",
    "censoring-operator": ">",
    "reading": 100
  },
  {
    "item-smiles": "CCCOc1ccc(-c2cc(OCCN3CCCCC3)c3cc(OCCCN4CCOCC4)ccc3n2)cc1",
    "recorded-metric": "MIC",
    "censoring-operator": "=",
    "reading": 50
  },
  {
    "item-smiles": "CCCOc1ccc(-c2cc(OCCN(CC)CC)c3cc(OCCCN(C)C)ccc3n2)cc1",
    "recorded-metric": "MIC",
    "censoring-operator": ">",
    "reading": 100
  },
  {
    "item-smiles": "O=C(O)c1cn(C2CC2)c2cc(N3CCNCC3)c(F)cc2c1=O",
    "recorded-metric": "MIC",
    "censoring-operator": "=",
    "reading": 0.63
  }
]

----------
Catalogue of pIC50 values
molecular target: Quinolone resistance protein NorA (Staphylococcus aureus, UniProt P0A0J7); assay: Inhibition of Staphylococcus aureus SA-1199B NorA assessed as reduction in EtBr efflux measured over 5 mins by fluorescence assay
pIC50: −log10 of the molar value.
recorded-metric: pIC50

[
  {
    "molecule": "CCCOc1ccc(-c2cc(OCCN3CCCCC3)c3cc(OCCCN4CCOCC4)ccc3n2)cc1",
    "tested-target": "Quinolone resistance protein NorA (Staphylococcus aureus, UniProt P0A0J7)",
    "reading": 5.36
  },
  {
    "molecule": "CCCOc1ccc(-c2cc(OCCN3CCCCC3)c3ccccc3n2)cc1",
    "tested-target": "Quinolone resistance protein NorA (Staphylococcus aureus, UniProt P0A0J7)",
    "reading": 5.14
  },
  {
    "molecule": "CCCOc1ccc(-c2cc(OCCN(CC)CC)c3cc(O)ccc3n2)cc1",
    "tested-target": "Quinolone resistance protein NorA (Staphylococcus aureus, UniProt P0A0J7)",
    "reading": 5.24
  },
  {
    "molecule": "CCCOc1ccc(-c2cc(OCCN3CCCCC3)c3cc(O)ccc3n2)cc1",
    "tested-target": "Quinolone resistance protein NorA (Staphylococcus aureus, UniProt P0A0J7)",
    "reading": 5.48
  },
  {
    "molecule": "CCCOc1ccc(-c2cc(OCCN(CC)CC)c3cc(OCCN(CC)CC)ccc3n2)cc1",
    "tested-target": "Quinolone resistance protein NorA (Staphylococcus aureus, UniProt P0A0J7)",
    "reading": 4.97
  },
  {
    "molecule": "CCCOc1ccc(-c2cc(OCCN3CCCCC3)c3cc(OCCN(CC)CC)ccc3n2)cc1",
    "tested-target": "Quinolone resistance protein NorA (Staphylococcus aureus, UniProt P0A0J7)",
    "reading": 5.28
  },
  {
    "molecule": "CCCOc1ccc(-c2cc(OCCN(CC)CC)c3ccccc3n2)cc1",
    "tested-target": "Quinolone resistance protein NorA (Staphylococcus aureus, UniProt P0A0J7)",
    "reading": 5.05
  },
  {
    "molecule": "CCCOc1ccc(-c2cc(OCCN3CCCCC3)c3cc(OCCCN(C)C)ccc3n2)cc1",
    "tested-target": "Quinolone resistance protein NorA (Staphylococcus aureus, UniProt P0A0J7)",
    "reading": 5.14
  },
  {
    "molecule": "CCCOc1ccc(-c2cc(OCCN(CC)CC)c3cc(OCCCN4CCOCC4)ccc3n2)cc1",
    "tested-target": "Quinolone resistance protein NorA (Staphylococcus aureus, UniProt P0A0J7)",
    "reading": 5.30
  },
  {
    "molecule": "COC(=O)[C@H]1[C@H]2C[C@@H]3c4[nH]c5cc(OC)ccc5c4CCN3C[C@H]2C[C@@H](OC(=O)c2cc(OC)c(OC)c(OC)c2)[C@@H]1OC [RESERPINE]",
    "tested-target": "Quinolone resistance protein NorA (Staphylococcus aureus, UniProt P0A0J7)",
    "reading": 5.04
  },
  {
    "molecule": "CCCOc1ccc(-c2cc(OCCN(CC)CC)c3cc(OCCCN(C)C)ccc3n2)cc1",
    "tested-target": "Quinolone resistance protein NorA (Staphylococcus aureus, UniProt P0A0J7)",
    "reading": 5.06
  }
]

----------
Target: Quinolone resistance protein NorA (Staphylococcus aureus) (UniProt P0A0J7)
Sequence (whole entry): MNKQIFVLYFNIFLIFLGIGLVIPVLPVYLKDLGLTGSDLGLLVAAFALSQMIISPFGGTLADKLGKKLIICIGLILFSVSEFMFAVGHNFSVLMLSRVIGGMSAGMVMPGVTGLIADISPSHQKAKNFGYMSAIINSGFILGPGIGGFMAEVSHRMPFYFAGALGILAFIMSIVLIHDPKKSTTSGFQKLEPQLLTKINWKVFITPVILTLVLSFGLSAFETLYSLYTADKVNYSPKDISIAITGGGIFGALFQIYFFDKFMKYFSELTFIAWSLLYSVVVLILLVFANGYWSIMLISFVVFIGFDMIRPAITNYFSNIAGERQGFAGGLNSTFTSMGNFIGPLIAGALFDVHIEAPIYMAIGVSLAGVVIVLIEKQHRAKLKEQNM
Experiment: Inhibition of Staphylococcus aureus SA-1199B NorA assessed as potentiation of ciprofloxacin-induced antibacterial activity by measuring minimum potetntiation concentration causing 4 fold reduction in ciprofloxacin MIC by ciprofloxacin assay
Catalogue of Activity values

[
  {
    "compound": "CCCOc1ccc(-c2cc(OCCN(CC)CC)c3cc(O)ccc3n2)cc1",
    "Activity [µg/mL]": 1.56
  },
  {
    "compound": "CCCOc1ccc(-c2cc(OCCN(CC)CC)c3ccccc3n2)cc1",
    "Activity [µg/mL]": 6.25
  },
  {
    "compound": "COC(=O)[C@H]1[C@H]2C[C@@H]3c4[nH]c5cc(OC)ccc5c4CCN3C[C@H]2C[C@@H](OC(=O)c2cc(OC)c(OC)c(OC)c2)[C@@H]1OC [RESERPINE]",
    "Activity [µg/mL]": 1.56
  },
  {
    "compound": "CCCOc1ccc(-c2cc(OCCN3CCCCC3)c3ccccc3n2)cc1",
    "Activity [µg/mL]": 1.56
  },
  {
    "compound": "CCCOc1ccc(-c2cc(OCCN(CC)CC)c3cc(OCc4ccccc4)ccc3n2)cc1",
    "Activity [µg/mL]": 0.78
  },
  {
    "compound": "CCCOc1ccc(-c2cc(OCCN(CC)CC)c3cc(OCCCN4CCOCC4)ccc3n2)cc1",
    "Activity [µg/mL]": 12.5
  },
  {
    "compound": "CCCOc1ccc(-c2cc(OCCN3CCCCC3)c3cc(OCCCN(C)C)ccc3n2)cc1",
    "Activity [µg/mL]": 6.25
  },
  {
    "compound": "CCCOc1ccc(-c2cc(OCCN3CCCCC3)c3cc(O)ccc3n2)cc1",
    "Activity [µg/mL]": 6.25
  },
  {
    "compound": "CCCOc1ccc(-c2cc(OCCN3CCCCC3)c3cc(OCCN(CC)CC)ccc3n2)cc1",
    "Activity [µg/mL]": 25
  },
  {
    "compound": "CCCOc1ccc(-c2cc(OCCN3CCCCC3)c3cc(OCCCN4CCOCC4)ccc3n2)cc1",
    "Activity [µg/mL]": 6.25
  },
  {
    "compound": "CCCOc1ccc(-c2cc(OCCN3CCCCC3)c3cc(OCc4ccccc4)ccc3n2)cc1",
    "Activity [µg/mL]": 0.78
  }
]
